# credit: patent US11534441B2

- target desc: MAP4K1 (HPK1) (Homo sapiens (Human))
- method notes: MAP4K1 (HPK1) biochemical enzymatic activity, electrophoretic mobility shift (EZReader 2), ATP at APPKM (26 μM)
- conditions used: numeric value
IC50 vs 0.4 nM: less than gives MET; not less than gives NOT MET.

Record excerpt, results attached:
INSERT INTO assay_data (compound, class_assignment) VALUES
  ('C[C@@H]1COC(=O)c2ccc(Nc3cc4c([C@](C)(N)C5CC5)cnc(OC5CC5)c4cn3)nc21 (single isomer, unassigned) [Compound 118]', 'NOT MET'),
  ('COc1ncc(C(C)(C)N)c2cc(Nc3ccnc(OC(C)C)n3)ncc12 [Compound 4]', 'NOT MET'),
  ('CC(C)(N)c1cnc(OC2CC2)c2cnc(Nc3ccc4c(n3)C3(CC3)COC4=O)cc12 [Compound 107]', 'NOT MET'),
  ('COc1ccc(C(C)(C)N)c2cc(Nc3ccnc(C(C)(C)F)n3)ncc12 [Compound 5]', 'MET'),
  ('COc1ncc(C(C)(C)NC2CCC2)c2cc(Nc3ccc4c(n3)CC(C)(C)OC4=O)ncc12 [Compound 158]', 'NOT MET'),
  ('CC1(C)Cc2nc(Nc3cc4c([C@](C)(N)C5CC5)cnc(OC5CC5)c4cn3)ccc2C(=O)O1 [Compound 74]', 'MET');

For COC[C@@](C)(N)c1cnc(OC)c2cnc(Nc3ccc4c(n3)[C@@H](C)C(C)(C)OC4=O)cc12 [Compound 201] , is the recorded IC50 below the cut-off of 0.4 nM?
MET

* * *

- target desc: MAP4K1 (HPK1) (Homo sapiens (Human))
- method notes: MAP4K1 (HPK1) biochemical enzymatic activity, electrophoretic mobility shift (EZReader 2), ATP at APPKM (26 μM)
- conditions used: numeric value
Cut-off 400 pM on IC50: below means TRUE, at or above means FALSE.

Below, 4 compounds whose answers are already recorded.
INSERT INTO measurements (compound, class_assignment) VALUES
  ('C[C@H](Oc1ncc(C(C)(C)N)c2cc(Nc3ccc4c(n3)CC(C)(C)OC4=O)ncc12)C(F)F (single isomer, unassigned) [Compound 164]', 'FALSE'),
  ('C[C@@H]1c2nc(Nc3cc4c([C@](C)(N)C5CC5)cnc(OC5(C)CC5)c4cn3)ccc2C(=O)O[C@@H]1C [Compound 94]', 'TRUE'),
  ('CC[C@@H](N)c1ccc(OC)c2cnc(Nc3ccc4c(n3)C3(CC3)C(C)(C)OC4=O)cc12 (single isomer, unassigned) [Compound 207]', 'TRUE'),
  ('C[C@@H]1OC(=O)c2ccc(Nc3cc4c([C@](C)(N)C5CC5)cnc(NC5CC5)c4cn3)nc2[C@H]1C [Compound 149]', 'TRUE');

Consider now this further compound.
Say whether its IC50 is strictly beneath 400 pM. Entry: C[C@](N)(c1cnc(OC2CC2)c2cnc(Nc3ccc4c(n3)CCOC4=O)cc12)C1CC1 (single isomer, unassigned) [Compound 108]
FALSE

* * *

Overview of recorded IC50 for various compounds
- target desc: MAP4K1 (HPK1) (Homo sapiens (Human), UniProt Q92918)
- Sequence (Q92918 whole entry): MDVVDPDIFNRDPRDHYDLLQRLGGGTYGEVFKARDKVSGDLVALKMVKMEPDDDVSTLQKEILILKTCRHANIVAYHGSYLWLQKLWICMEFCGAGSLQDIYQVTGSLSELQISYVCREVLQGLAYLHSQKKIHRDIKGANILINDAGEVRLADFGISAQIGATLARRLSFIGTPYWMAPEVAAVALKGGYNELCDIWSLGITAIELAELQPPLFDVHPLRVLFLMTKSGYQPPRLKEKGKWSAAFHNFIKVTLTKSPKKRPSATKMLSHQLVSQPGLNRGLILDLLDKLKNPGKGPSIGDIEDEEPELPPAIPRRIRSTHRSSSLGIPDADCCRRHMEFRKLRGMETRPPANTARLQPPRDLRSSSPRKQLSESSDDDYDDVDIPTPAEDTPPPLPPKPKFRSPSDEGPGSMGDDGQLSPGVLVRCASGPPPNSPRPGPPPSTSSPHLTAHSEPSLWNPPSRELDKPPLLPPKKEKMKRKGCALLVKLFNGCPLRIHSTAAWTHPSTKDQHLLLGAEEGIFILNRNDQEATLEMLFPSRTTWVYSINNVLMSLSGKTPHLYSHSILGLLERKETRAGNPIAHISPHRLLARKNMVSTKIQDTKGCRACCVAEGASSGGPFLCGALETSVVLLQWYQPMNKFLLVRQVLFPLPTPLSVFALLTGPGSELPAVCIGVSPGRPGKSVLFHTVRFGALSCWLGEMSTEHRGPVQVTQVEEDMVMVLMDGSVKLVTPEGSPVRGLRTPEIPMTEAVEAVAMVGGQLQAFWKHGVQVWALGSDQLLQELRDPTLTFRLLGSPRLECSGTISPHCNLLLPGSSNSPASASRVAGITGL
- method notes: MAP4K1 (HPK1) biochemical enzymatic activity, electrophoretic mobility shift (EZReader 2), ATP at APPKM (26 μM)
- conditions used: numeric value

In the examples that follow, each entry is paired with its recorded IC50.
INSERT INTO measurements (compound, target_desc, val) VALUES
  ('C[C@@H]1OC(=O)c2ccc(Nc3cc4c([C@](C)(N)C5CC5)cnc(OC5CC5)c4cn3)nc2[C@@H]1C (single isomer, unassigned) [Compound 155]', 'MAP4K1 (HPK1) (Homo sapiens (Human), UniProt Q92918)', '0.97 nM'),
  ('CC[C@](C)(N)c1cnc(OC2(C)CC2)c2cnc(Nc3ccc4c(n3)[C@@H](C)C(C)(C)OC4=O)cc12 [Compound 87]', 'MAP4K1 (HPK1) (Homo sapiens (Human), UniProt Q92918)', '0.44 nM'),
  ('C[C@@H]1OC(=O)c2ccc(Nc3cc4c(C(C)(C)N)cnc(OC5CC5)c4cn3)nc2C1(C)C [Compound 137]', 'MAP4K1 (HPK1) (Homo sapiens (Human), UniProt Q92918)', '0.46 nM'),
  ('CC1(C)Cc2nc(Nc3cc4c(C(C)(C)N)cnc(OCC(F)(F)F)c4cn3)ccc2C(=O)O1 [Compound 77]', 'MAP4K1 (HPK1) (Homo sapiens (Human), UniProt Q92918)', '0.65 nM'),
  ('CC1(C)Cc2nc(Nc3cc4c(C(C)(C)NCCO)cnc(OC5CC5)c4cn3)ccc2C(=O)O1 [Compound 177]', 'MAP4K1 (HPK1) (Homo sapiens (Human), UniProt Q92918)', '6.52 nM');

Reported IC50 of C[C@](N)(c1cnc(OC2CC2)c2cnc(Nc3ccc4c(n3)CCNC4=O)cc12)C1CC1 (single isomer, unassigned) [Compound 106] : 0.61 nM

According to the records, this compound C[C@@H]1OC(=O)c2ccc(Nc3cc4c(C(C)(C)N)cnc(NC5CCC5)c4cn3)nc2[C@H]1C [Compound 124] displays IC50 of 0.24 nM

* * *

- target desc: UniProt Q92918
- method notes: MAP4K1 (HPK1) biochemical enzymatic activity, electrophoretic mobility shift (EZReader 2), ATP at APPKM (26 μM)
- conditions used: class designation
pIC50: −log10 of the molar value.
Below: a set of entries, each annotated with reported pIC50.

Example entries and their recorded answers appear below.
INSERT INTO assay_data (molecule, val) VALUES
  ('COc1ncc(C(C)(C)N)c2cc(Nc3ccc4c(n3)[C@H](C)C(C)(C)OC4=O)ncc12', '> 9.52'),
  ('C[C@@H]1OC(=O)c2ccc(Nc3cc4c(C(C)(C)N)cnc(O[C@@H]5CCOC5)c4cn3)nc2[C@H]1C', '8.00 to 8.96'),
  ('CC1(C)Cc2nc(Nc3cc4c(C(C)(C)N)cnc(OC5CC5)c4cn3)ccc2C(=O)O1', '9.00 to 9.51');

For reference, reported pIC50 for C[C@H]1COC(=O)c2ccc(Nc3cc4c([C@](C)(N)C5CC5)cnc(OC5CC5)c4cn3)nc21 (single isomer, unassigned) stands at > 9.52

Reported pIC50 of COc1ncc(C(C)(C)N)c2cc(Nc3ccc(C#N)c(C(C)(C)F)n3)ncc12 : 9.00 to 9.51

* * *

- target desc: MAP4K1 (HPK1) (Homo sapiens (Human))
- method notes: MAP4K1 (HPK1) biochemical enzymatic activity, electrophoretic mobility shift (EZReader 2), ATP at APPKM (26 μM)
- conditions used: numeric value
value kind: IC50 (nM)
API: value field is a number in nM; no unit string.

As a guide, the following entries are already answered.
INSERT INTO results (molecule, unit_string, val) VALUES
  ('C[C@H]1OC(=O)c2ccc(Nc3cc4c(C(C)(C)N)cnc(OC5CC5)c4cn3)nc2C1(C)C', 'nM', 0.17),
  ('CC(C)(N)c1cnc(OC2CC2)c2cnc(Nc3ccc4c(n3)C(C)(C)COC4=O)cc12', 'nM', 0.23);

Per the record, CC[C@](C)(N)c1cnc(OC2CC2)c2cnc(Nc3ccc4c(n3)C(C)(C)OC4=O)cc12 has IC50 of 16.8

For reference, reported IC50 for CC[C@H]1OC(=O)c2ccc(Nc3cc4c(C(C)(C)N)cnc(OC5CC5)c4cn3)nc2[C@@H]1C stands at 0.46

C[C@@H]1OC(=O)c2ccc(Nc3cc4c(C(C)(C)N)cnc(O[C@H]5CCOC5)c4cn3)nc2[C@H]1C yielded IC50 of 0.39

The reported value for CC1(C)Cc2nc(Nc3cc4c([C@@](C)(N)C5CC5)cnc(OC5CC5)c4cn3)ccc2C(=O)O1 (single isomer, unassigned) in terms of IC50 is 2.61

Lab book: IC50 of CC[C@](C)(N)c1cnc(OC2CC2)c2cnc(Nc3ccc4c(n3)C3(CC3)[C@H](C)OC4=O)cc12 noted as 0.06

* * *

- target desc: MAP4K1 (HPK1) (Homo sapiens (Human))
- method notes: MAP4K1 (HPK1) biochemical enzymatic activity, electrophoretic mobility shift (EZReader 2), ATP at APPKM (26 μM)
- conditions used: numeric value
Overview of reported pIC50 across a group of compounds:
Just so you know, pIC50 here is -log10 of the concentration in molar units; reply with that number alone.

Worked examples follow.
INSERT INTO results (compound, val) VALUES
  ('CCOc1ncc(C(C)(C)N)c2cc(Nc3ccc4c(n3)CC(C)(C)OC4=O)ncc12', 9.60),
  ('COC[C@@](C)(N)c1cnc(OC2CC2)c2cnc(Nc3ccc4c(n3)[C@H](C)[C@H](C)OC4=O)cc12', 9.72),
  ('CC1(Oc2ncc(C(C)(C)N)c3cc(Nc4cnc5c(c4)C(=O)C(C)(C)OC5=O)ncc23)COC1', 9.57);

Sure, the documented pIC50 for C[C@](N)(c1cnc(OC2CC2)c2cnc(Nc3ccc4c(n3)C3(CC3)COC4=O)cc12)C1CC1 (single isomer, unassigned) is 9.60
